// values below are reported logD
assay: Lipophilicity, log D of the compound at pH 7.4; details: buffer
No unit in the answer, only the number.

[
  {
    "Structure Smiles": "N#CC1(NC(=O)[C@@H]2CCCC[C@H]2C(=O)N2CCc3oc4ccccc4c3C2)CC1",
    "Quantity Name": "logD",
    "Readout Value": 3
  }
]

## Task Recorded logD of `N#CC1(NC(=O)[C@@H]2CCCC[C@H]2C(=O)N2CCc3[nH]c4cc(F)ccc4c3C2)CC1` , please.
## Result 3

## Task Recorded logD of `N#CC1(NC(=O)[C@@H]2CCCC[C@H]2C(=O)N2CCc3[nH]c4ccc(F)cc4c3C2)CC1` , please.
## Result 3

====

assay: Lipophilicity, log D of the compound at pH 7.4; conditions: buffer
// values below are reported logD
No unit in the answer, only the number.

Recorded results for 3 compounds are shown here.
[
  {
    "Structure Smiles": "N#CC1(NC(=O)[C@@H]2CCCC[C@H]2C(=O)N2CCc3[nH]c4cccc(F)c4c3C2)CC1",
    "logD": 3.2
  },
  {
    "Structure Smiles": "N#CC1(NC(=O)[C@@H]2CCCC[C@H]2C(=O)N2CCc3[nH]c4ccccc4c3C2)CC1",
    "logD": 2.7
  },
  {
    "Structure Smiles": "N#CCNC(=O)[C@@H]1CCCC[C@H]1C(=O)N1CCN(c2ccccc2)CC1",
    "logD": 1.8
  }
]

## Task Recorded logD of `CS(=O)(=O)c1cccc2c3c([nH]c12)CCN(C(=O)[C@@H]1CCCC[C@H]1C(=O)NC1(C#N)CC1)C3` , please.
## Result 1.7

## Task Recorded logD of `N#Cc1cccc2c3c([nH]c12)CCN(C(=O)[C@@H]1CCCC[C@H]1C(=O)NC1(C#N)CC1)C3` , please.
## Result 2.5

## Task Recorded logD of `C[C@@H](C#N)NC(=O)[C@@H]1CCCC[C@H]1C(=O)N1CCc2[nH]c3ccc(F)cc3c2C1` , please.
## Result 3.5

====

assay: Aqueous solubility of the compound at pH 7.4; settings: buffer
Quantity Name: solubility (µM)
Give the value, in units of µM, as a plain number.

Recorded results for 5 compounds are shown here.
[
  {
    "Structure Smiles": "CS(=O)(=O)c1ccc2c3c([nH]c2c1)CCN(C(=O)[C@@H]1CCCC[C@H]1C(=O)NC1(C#N)CC1)C3",
    "Readout Value": 902
  },
  {
    "Structure Smiles": "CS(=O)(=O)c1ccc2[nH]c3c(c2c1)CN(C(=O)[C@@H]1CCCC[C@H]1C(=O)NC1(C#N)CC1)CC3",
    "Readout Value": 193
  },
  {
    "Structure Smiles": "CS(=O)(=O)c1cccc2c3c([nH]c12)CCN(C(=O)[C@@H]1CCCC[C@H]1C(=O)NC1(C#N)CC1)C3",
    "Readout Value": 1600
  },
  {
    "Structure Smiles": "N#CC1(NC(=O)[C@@H]2CCCC[C@H]2C(=O)N2CCc3[nH]c4ncccc4c3C2)CC1",
    "Readout Value": 1500
  },
  {
    "Structure Smiles": "N#CCNC(=O)[C@@H]1CCCC[C@H]1C(=O)N1CCN(c2ccccc2)CC1",
    "Readout Value": 640
  }
]

## Task Recorded solubility of `N#CC1(NC(=O)[C@@H]2CCCC[C@H]2C(=O)N2CCc3oc4ccccc4c3C2)CC1` , please.
## Result 580

## Task Recorded solubility of `N#CC1(NC(=O)[C@@H]2CCCC[C@H]2C(=O)N2CCc3[nH]c4c(C(F)(F)F)cccc4c3C2)CC1` , please.
## Result 150

## Task Recorded solubility of `N#CC1(NC(=O)[C@@H]2CCCC[C@H]2C(=O)N2CCc3[nH]c4c(OC(F)(F)F)cccc4c3C2)CC1` , please.
## Result 120

## Task Recorded solubility of `Cc1cccc2c3c([nH]c12)CCN(C(=O)[C@@H]1CCCC[C@H]1C(=O)NC1(C#N)CC1)C3` , please.
## Result 510

## Task Recorded solubility of `N#CC1(NC(=O)[C@@H]2CCCC[C@H]2C(=O)N2CCc3[nH]c4ccc(F)cc4c3C2)CC1` , please.
## Result 580

## Task Recorded solubility of `Cn1c2c(c3c(F)c(F)ccc31)CN(C(=O)[C@@H]1CCCC[C@H]1C(=O)NC1(C#N)CC1)CC2` , please.
## Result 300

## Task Recorded solubility of `CC(C)c1ccc2[nH]c3c(c2c1)CN(C(=O)[C@@H]1CCCC[C@H]1C(=O)NC1(C#N)CC1)CC3` , please.
## Result 84

## Task Recorded solubility of `N#CC1(NC(=O)[C@@H]2CCCC[C@H]2C(=O)N2CCc3[nH]c4ccccc4c3C2)CC1` , please.
## Result 910

## Task Recorded solubility of `N#CC1(NC(=O)[C@@H]2CCCC[C@H]2C(=O)N2CCc3[nH]c4cc(F)ccc4c3C2)CC1` , please.
## Result 540

## Task Recorded solubility of `CN1CCN(C(=O)[C@@H]2CCCC[C@H]2C(=O)NCC#N)CC1` , please.
## Result 3560

## Task Recorded solubility of `N#Cc1cccc2c3c([nH]c12)CCN(C(=O)[C@@H]1CCCC[C@H]1C(=O)NC1(C#N)CC1)C3` , please.
## Result 400

====

// values below are reported microsomal CLint
experiment: Intrinsic clearance in rat liver microsomes assessed as metabolic turnover

[
  {
    "Structure Smiles": "N#CCNC(=O)[C@@H]1CCCC[C@H]1C(=O)N1CCc2[nH]c3ccc(F)cc3c2C1",
    "microsomal CLint": "> 250 µL/min/mg"
  }
]

## Task Recorded microsomal CLint of `CN(C)C(=O)[C@@H]1CCCC[C@H]1C(=O)NCC#N` , please.
## Result < 2 µL/min/mg

## Task Recorded microsomal CLint of `N#CCNC(=O)[C@@H]1CCCC[C@H]1C(=O)N1CCN(c2ccccc2)CC1` , please.
## Result 115 µL/min/mg

## Task Recorded microsomal CLint of `N#CC1(NC(=O)[C@@H]2CCCC[C@H]2C(=O)N2CCc3[nH]c4ccc(F)cc4c3C2)CC1` , please.
## Result > 250 µL/min/mg

====

target: UniProt:P43235; test: Inhibition of human recombinant CatK assessed as suppression of enzyme-mediated Z-Phe-Arg-AMC cleavage incubated for 1 hrs by QFRET assay
Sequence (P43235 whole entry): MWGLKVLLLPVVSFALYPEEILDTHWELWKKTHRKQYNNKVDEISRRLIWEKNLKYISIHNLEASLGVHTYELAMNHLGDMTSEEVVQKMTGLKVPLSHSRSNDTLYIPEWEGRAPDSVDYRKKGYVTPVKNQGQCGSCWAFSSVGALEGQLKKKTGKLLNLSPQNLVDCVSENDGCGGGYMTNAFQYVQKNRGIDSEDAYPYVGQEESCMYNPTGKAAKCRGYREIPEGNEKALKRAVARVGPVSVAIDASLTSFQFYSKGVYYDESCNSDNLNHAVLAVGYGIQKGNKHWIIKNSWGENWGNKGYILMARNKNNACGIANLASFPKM
Quantity Name: pIC50
Scale for pIC50: -log10 of concentration given in mol/L; no unit attached.

[
  {
    "Structure Smiles": "N#Cc1cccc2c3c([nH]c12)CCN(C(=O)[C@@H]1CCCC[C@H]1C(=O)NC1(C#N)CC1)C3",
    "Readout Value": 8.70
  },
  {
    "Structure Smiles": "CS(=O)(=O)c1ccc2c3c([nH]c2c1)CCN(C(=O)[C@@H]1CCCC[C@H]1C(=O)NC1(C#N)CC1)C3",
    "Readout Value": 7.47
  }
]

Now, please, on to the next compound.
## Task Recorded pIC50 of `Cc1cccc2c3c([nH]c12)CCN(C(=O)[C@@H]1CCCC[C@H]1C(=O)NC1(C#N)CC1)C3` , please.
## Result 8.52

====

// values below are reported pIC50
molecular target: Cathepsin B (Homo sapiens); experiment: Inhibition of human recombinant CatB assessed as suppression of enzyme-mediated Z-Arg-Arg-AMC cleavage by QFRET assay
pIC50: −log10 of the molar value.

[
  {
    "Structure Smiles": "N#CC1(NC(=O)[C@@H]2CCCC[C@H]2C(=O)N2CCc3[nH]c4cc(F)ccc4c3C2)CC1",
    "pIC50": "< 5.54"
  },
  {
    "Structure Smiles": "N#CC1(NC(=O)[C@@H]2CCCC[C@H]2C(=O)N2CCc3[nH]c4ccc(C(F)(F)F)cc4c3C2)CC1",
    "pIC50": "< 5.54"
  }
]

## Task Record lookup: for Cathepsin B (Homo sapiens), what pIC50 belongs to `Cn1c2c(c3c(F)c(F)ccc31)CN(C(=O)[C@@H]1CCCC[C@H]1C(=O)NC1(C#N)CC1)CC2` ?
## Result < 5.54

====

target: Cathepsin S (Homo sapiens); assay: Inhibition of human recombinant CatS assessed as suppression of enzyme-mediated Z-Val-Val-Arg-AMC cleavage by QFRET assay
Sequence (P25774 whole entry): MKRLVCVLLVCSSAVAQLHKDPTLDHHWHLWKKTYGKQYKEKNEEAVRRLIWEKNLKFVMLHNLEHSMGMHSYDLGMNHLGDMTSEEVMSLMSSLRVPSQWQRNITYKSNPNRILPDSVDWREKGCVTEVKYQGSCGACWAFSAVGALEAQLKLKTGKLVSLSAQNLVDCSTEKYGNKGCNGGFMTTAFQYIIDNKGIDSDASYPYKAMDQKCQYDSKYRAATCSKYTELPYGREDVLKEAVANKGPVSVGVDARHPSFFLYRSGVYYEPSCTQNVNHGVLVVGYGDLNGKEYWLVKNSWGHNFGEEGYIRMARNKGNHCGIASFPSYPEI
pIC50: −log10 of the molar value.
Quantity Name: pIC50

Recorded results for 5 compounds are shown here.
[
  {
    "Compound": "C[C@@H](C#N)NC(=O)[C@@H]1CCCC[C@H]1C(=O)N1CCc2[nH]c3ccc(F)cc3c2C1",
    "Readout Value": "< 4.15"
  },
  {
    "Compound": "N#CC(NC(=O)[C@@H]1CCCC[C@H]1C(=O)N1CCN(c2ccc(F)cc2)CC1)c1ccccc1 (some centres undefined)",
    "Readout Value": 6.59
  },
  {
    "Compound": "CCOc1cccc2c3c([nH]c12)CCN(C(=O)[C@@H]1CCCC[C@H]1C(=O)NC1(C#N)CC1)C3",
    "Readout Value": "< 5.40"
  },
  {
    "Compound": "CC(C)c1ccc2[nH]c3c(c2c1)CN(C(=O)[C@@H]1CCCC[C@H]1C(=O)NC1(C#N)CC1)CC3",
    "Readout Value": "< 5.40"
  },
  {
    "Compound": "N#CC1(NC(=O)[C@@H]2CCCC[C@H]2C(=O)N2CCc3[nH]c4ccc(Cl)cc4c3C2)CC1",
    "Readout Value": "< 5.40"
  }
]

## Task Recorded pIC50 of COc1ccccc1C(C#N)NC(=O)[C@@H]1CCCC[C@H]1C(=O)N1CCN(Cc2ccc(F)cc2)CC1 (some centres undefined) , please.
## Result 7.12

The values you see were collected from ChEMBL document CHEMBL2163205.
